Experiment Notes: Mouse pharmacokinetics after oral gavage, plasma drug concentration by LC-MS/MS (BALB/c)
Type: in vivo
Experimental Parameters: mouse, plasma, 10 mg/kg, male mice, read-out: AUC0-24
Output y for AUC(0-t) not less than 0.8 µM·h; output n otherwise.

Some solved cases for reference:
| Compound | Class Assignment |
| --- | --- |
| Cc1cc(Cl)c(Cl)cc1NC(=O)[C@H](CCN)NC(=O)[C@@H]1Cc2ccccc2CN1C(=O)CCC(=O)c1ccccc1 [Compound 2-21] | y |
| CNCCCC[C@H](NC(=O)[C@@H]1Cc2ccccc2CN1C(=O)CCC(=O)c1ccccc1)C(=O)Nc1ccc(Cl)c(C)c1 [Compound 4-4] | n |
| Cc1c(Cl)ccc(NC(=O)[C@H](CCN)NC(=O)[C@@H]2Cc3ccccc3CN2C(=O)CCC(=O)c2ccccc2)c1C [Compound 2-26] | y |

Challenge: Record NCCCC[C@H](NC(=O)[C@@H]1Cc2ccccc2CN1C(=O)CCC(=O)c1ccccc1)C(=O)Nc1ccc(F)c(C(F)(F)F)c1 [Compound 1-26] ; criterion: AUC(0-t) no lower than 0.8 µM·h. Met?
Response given: n

Challenge: And Cc1cc(NC(=O)[C@H](CCN)NC(=O)[C@@H]2Cc3ccccc3CN2C(=O)CCC(=O)c2ccccc2)c(C)cc1Cl [Compound 2-19] ?
Response given: y
